- Tested on: KP-3 (Pancreatic Carcinoma)
- protocol_details: combination Emax (second highest fraction inhibited in the dose matrix, 72 h); higher = more inhibition; extreme values may be limits of the assay
Consider the following molecules and their measured combination Emax readings.

# molecule, combination Emax
records = [
    ("CC(=O)c1c(C)c2cnc(Nc3ccc(N4CCNCC4)cn3)nc2n(C2CCCC2)c1=O [Palbociclib] + Cn1cnc2c(F)c(Nc3ccc(Br)cc3Cl)c(C(=O)NOCCO)cc21 [Selumetinib] (first compound max 10 µM, 7x7, partner max 10 µM)", 0.244),
    ("Cc1cc2ncnn2cc1Nc1ncc2c(n1)n(C1CCOCC1)c(=O)n2C [AZD7648] + CCN(CCO)CCCOc1ccc2c(Nc3cc(CC(=O)Nc4cccc(F)c4)[nH]n3)ncnc2c1 [AZD2811] (first compound max 10 µM, 7x7, partner max 1 µM)", 0.237),
    ("CN(C)CCCOc1ccc(-c2ccc3ncc4c(c3c2)n(C2CCOCC2)c(=O)n4C)cn1 [AZD0156] + CCN(CCO)CCCOc1ccc2c(Nc3cc(CC(=O)Nc4cccc(F)c4)[nH]n3)ncnc2c1 [AZD2811] (first compound max 1 µM, 7x7, partner max 1 µM)", 0.0612),
    ("N#Cc1cnc(Nc2cc(NC[C@H]3CNCCO3)c(C(F)(F)F)cn2)cn1 [SRA737] + O=c1[nH]cc(F)c(=O)[nH]1 [5-Fluorouracil] (first compound max 10 µM, 7x7, partner max 20 µM)", 0.307),
    ("NC1(C(=O)N[C@@H](CCO)c2ccc(Cl)cc2)CCN(c2ncnc3[nH]ccc23)CC1 [Capivasertib] + C[C@@H]1COCCN1C2=NC(=NC(=C2)C3(CC3)[S@](=N)(=O)C)C4=C5C=CNC5=NC=C4 [AZD6738] (first compound max 10 µM, 7x7, partner max 10 µM)", 0.318),
    ("NC1(C(=O)N[C@@H](CCO)c2ccc(Cl)cc2)CCN(c2ncnc3[nH]ccc23)CC1 [Capivasertib] + CC(C)n1c(=O)n(C)c2cnc3cc(F)c(-c4ccc(OCCCN5CCCCC5)nc4)cc3c21 [AZD1390] (first compound max 10 µM, 7x7, partner max 0.3 µM)", 0.203),
    ("C[C@@H](Nc1cc(F)cc(F)c1)c1cc(C(=O)N(C)C)cc2c(=O)cc(N3CCOCC3)oc12 [AZD8186] + C1CN(CCC1(C(=O)N[C@@H](CCO)C2=CC=C(C=C2)Cl)N)C3=NC=NC4=C3C=CN4 [AZD5363] (first compound max 10 µM, 7x7, partner max 10 µM)", 0.312),
    ("C[C@@H](c1ccc2nccn2c1)n1nnc2ncc(-c3cnn(C)c3)nc21 [Savolitinib] + CC1(C)CCC(CN2CCN(c3ccc(C(=O)NS(=O)(=O)c4ccc(NCC5CCOCC5)c([N+](=O)[O-])c4)c(Oc4cnc5[nH]ccc5c4)c3)CC2)=C(c2ccc(Cl)cc2)C1 [Venetoclax] (first compound max 1 µM, 7x7, partner max 1 µM)", 0.131),
]

* * *

- Tested on: SJSA-1 (Osteosarcoma)
- protocol_details: combination Emax (second highest fraction inhibited in the dose matrix, 72 h); higher = more inhibition; extreme values may be limits of the assay

# compound, combination Emax
records = [
    ("CN(C)CCCOc1ccc(-c2ccc3ncc4c(c3c2)n(C2CCOCC2)c(=O)n4C)cn1 [AZD0156] + O=C(c1cc(Cc2n[nH]c(=O)c3ccccc23)ccc1F)N1CCN(C(=O)C2CC2)CC1 [Olaparib] (first compound max 3 µM, partner max 3 µM)", 0.331),
    ("COc1cccc(OCCCN)c1-c1cc(Nc2cnc(C#N)cn2)n[nH]1 [Prexasertib] + CN(C)CCCOc1ccc(-c2ccc3ncc4c(c3c2)n(C2CCOCC2)c(=O)n4C)cn1 [AZD0156] (first compound max 1 µM, 7x7, partner max 1 µM)", 0.711),
    ("C=CCn1c(=O)c2cnc(Nc3ccc(N4CCN(C)CC4)cc3)nc2n1-c1cccc(C(C)(C)O)n1 [AZD1775] + C1CN(CCC1(C(=O)N[C@@H](CCO)C2=CC=C(C=C2)Cl)N)C3=NC=NC4=C3C=CN4 [Capivasertib] (first compound max 3 µM, partner max 3 µM)", 0.634),
    ("NC1(C(=O)N[C@@H](CCO)c2ccc(Cl)cc2)CCN(c2ncnc3[nH]ccc23)CC1 [Capivasertib] + CC(=O)c1c(C)c2cnc(Nc3ccc(N4CCNCC4)cn3)nc2n(C2CCCC2)c1=O [Palbociclib] (first compound max 10 µM, 7x7, partner max 10 µM)", 0.51),
    ("COc1cccc(OCCCN)c1-c1cc(Nc2cnc(C#N)cn2)n[nH]1 [Prexasertib] + C=CCn1c(=O)c2cnc(Nc3ccc(N4CCN(C)CC4)cc3)nc2n1-c1cccc(C(C)(C)O)n1 [AZD1775] (first compound max 1 µM, partner max 1 µM)", 0.686),
    ("C[C@@H](Oc1cc(-c2cnn(C3CCNCC3)c2)cnc1N)c1c(Cl)ccc(F)c1Cl [Crizotinib] + CC1=C(C(=CC=C1)Cl)NC(=O)C2=CN=C(S2)NC3=CC(=NC(=N3)C)N4CCN(CC4)CCO [Dasatinib] (first compound max 10 µM, 7x7, partner max 2 µM)", 0.885),
    ("Cn1cnc2c(F)c(Nc3ccc(Br)cc3Cl)c(C(=O)NOCCO)cc21 [Selumetinib] + C[C@@H]1COCCN1C2=NC(=NC(=C2)C3(CC3)[S@](=N)(=O)C)C4=C5C=CNC5=NC=C4 [AZD6738] (first compound max 10 µM, 7x7, partner max 10 µM)", 0.559),
    ("C=CCn1c(=O)c2cnc(Nc3ccc(N4CCN(C)CC4)cc3)nc2n1-c1cccc(C(C)(C)O)n1 [AZD1775] + CCc1c2c(nc3ccc(O)cc13)-c1cc3c(c(=O)n1C2)COC(=O)[C@]3(O)CC [SN-38] (first compound max 1 µM, partner max 0.3 µM)", 0.706),
    ("C[C@@H](Oc1cc(-c2cnn(C3CCNCC3)c2)cnc1N)c1c(Cl)ccc(F)c1Cl [Crizotinib] + Cn1cnc2c(F)c(Nc3ccc(Br)cc3Cl)c(C(=O)NOCCO)cc21 [Selumetinib] (first compound max 10 µM, 7x7, partner max 10 µM)", 0.82),
    ("COc1nnc2ccc(N3CCC(c4ccc(OCCN5CCN(C)C(=O)[C@H]5C)cc4)CC3)nn12 [AZD5153] + C[C@@H]1COCCN1C2=NC(=NC(=C2)C3(CC3)[S@](=N)(=O)C)C4=C5C=CNC5=NC=C4 [AZD6738] (first compound max 1 µM, 7x7, partner max 10 µM)", 0.634),
    ("CN(CCO)CC[C@H](CSc1ccccc1)Nc1ccc(S(=O)(=O)NC(=O)c2ccc(N3CCC([C@@H](O)c4ccccc4-c4ccc(Cl)cc4)CC3)cc2)cc1S(=O)(=O)C(F)(F)F [AZD4320] + CS(=O)(=O)CCNCc1ccc(-c2ccc3ncnc(Nc4ccc(OCc5cccc(F)c5)c(Cl)c4)c3c2)o1 [Lapatinib] (first compound max 1 µM, 7x7, partner max 10 µM)", 0.332),
    ("CN(CCO)CC[C@H](CSc1ccccc1)Nc1ccc(S(=O)(=O)NC(=O)c2ccc(N3CCC([C@@H](O)c4ccccc4-c4ccc(Cl)cc4)CC3)cc2)cc1S(=O)(=O)C(F)(F)F [AZD4320] + CC(=O)O[C@H]1C(=O)[C@@]2(C)[C@H]([C@H](OC(=O)c3ccccc3)[C@]3(O)C[C@H](OC(=O)[C@H](O)[C@@H](NC(=O)c4ccccc4)c4ccccc4)C(C)=C1C3(C)C)[C@]1(OC(C)=O)CO[C@@H]1C[C@@H]2O [Paclitaxel] (first compound max 1 µM, 7x7, partner max 3 µM)", 0.967),
    ("CC1(C)CCC(CN2CCN(c3ccc(C(=O)NS(=O)(=O)c4ccc(NCC5CCOCC5)c([N+](=O)[O-])c4)c(Oc4cnc5[nH]ccc5c4)c3)CC2)=C(c2ccc(Cl)cc2)C1 [Venetoclax] + C=CCn1c(=O)c2cnc(Nc3ccc(N4CCN(C)CC4)cc3)nc2n1-c1cccc(C(C)(C)O)n1 [AZD1775] (first compound max 1 µM, partner max 1 µM)", 0.453),
]

* * *

- System: NCI-H526 (Small Cell Lung Carcinoma);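 also: after 72 h of two-drug dosing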
- protocol_details: Bliss excess, mean over the matrix (fraction); higher = more synergy

# compound, Bliss excess
records = [
    ("CCc1c2c(nc3ccc(O)cc13)-c1cc3c(c(=O)n1C2)COC(=O)[C@]3(O)CC [SN-38] + O=C(c1cc(Cc2n[nH]c(=O)c3ccccc23)ccc1F)N1CCN(C(=O)C2CC2)CC1 [Olaparib] (first compound max 0.3 µM, 7x7, partner max 10 µM)", 0.0278),
    ("Cn1cnc2c(F)c(Nc3ccc(Br)cc3Cl)c(C(=O)NOCCO)cc21 [Selumetinib] + CCN(CCO)CCCOc1ccc2c(Nc3cc(CC(=O)Nc4cccc(F)c4)[nH]n3)ncnc2c1 [AZD2811] (first compound max 10 µM, 7x7, partner max 1 µM)", -0.017),
    ("NC1(C(=O)N[C@@H](CCO)c2ccc(Cl)cc2)CCN(c2ncnc3[nH]ccc23)CC1 [Capivasertib] + C[C@@H]1COCCN1C2=NC(=NC(=C2)C3(CC3)[S@](=N)(=O)C)C4=C5C=CNC5=NC=C4 [AZD6738] (first compound max 10 µM, 7x7, partner max 10 µM)", -0.0193),
    ("N#Cc1cnc(Nc2cc(NC[C@H]3CNCCO3)c(C(F)(F)F)cn2)cn1 [SRA737] + CCc1c2c(nc3ccc(O)cc13)-c1cc3c(c(=O)n1C2)COC(=O)[C@]3(O)CC [SN-38] (first compound max 10 µM, 7x7, partner max 0.3 µM)", -0.0427),
]
